For each entry below, report its IC50 value.
Molecular target: C-Raf kinase (SEQ. ID NO: 3) (Homo sapiens (Human), UniProt P04049, Y340D/Y341D)
Sequence (P04049 307-648 Y340D/Y341D): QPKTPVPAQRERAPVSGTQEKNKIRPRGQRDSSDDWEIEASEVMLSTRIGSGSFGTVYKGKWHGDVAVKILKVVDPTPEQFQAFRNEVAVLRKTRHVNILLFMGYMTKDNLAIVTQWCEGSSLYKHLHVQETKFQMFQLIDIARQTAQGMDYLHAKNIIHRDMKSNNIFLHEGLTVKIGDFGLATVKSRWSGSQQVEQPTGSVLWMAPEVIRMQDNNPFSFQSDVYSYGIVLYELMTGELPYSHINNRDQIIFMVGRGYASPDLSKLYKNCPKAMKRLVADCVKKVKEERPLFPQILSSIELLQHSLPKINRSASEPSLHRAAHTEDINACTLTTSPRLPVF
Assay: Biochemical Assay for C-Raf (1)
Conditions: Table J, assay version (1); read-out: CRAF (1) IC50

molecular_string | obs_value
COC(C)(C)c1cc(C(=O)Nc2ccc(C)c(-c3cc(-c4ccnc(NC(=O)C5CC5)c4)cnn3)c2)ccn1 | ≤ 100 nM
CC(=O)Nc1cc(-c2cccc(-c3cc(NC(=O)c4ccnc(C(F)(F)F)c4)ccc3C)c2)ccn1 | ≤ 100 nM
Cc1ncc(NC(=O)c2ccnc(C(C)(C)C#N)c2)cc1-c1cccc(-c2cc(N)ncn2)c1 | ≤ 100 nM

For each of the items listed, what is its IC50?
1. CNC(=O)c1cc(-c2cc(-c3cc(NC(=O)c4ccnc(C(F)F)c4)c(F)cc3C)cc(=O)n2C)ccn1
2. CNC(=O)c1cc(-c2cnnc(-c3cc(NC(=O)c4ccnc(C(C)(C)OC)c4)ccc3C)c2)ccn1

1000 to 10000 nM
100 to 500 nM
